Reported activity change, negative = inhibition by item:
assay: qHTS Assay for inhibitors of the human cytomegalovirus (HCMV); conditions: HFF cells, HCMV-luciferase reporter, 72 h; at 57.5 µM; stronger effect = lower value; further: on the % scale 0 is the no-effect control and ±100 the full control effect
In all, about 410,000 compounds went through this assay and about 18,000 (4.4%) were called active. Another 7% or so got no clear call; they are omitted. What follows is part of a selection rich in actives, with near analogues and random picks from the rest.

MOLECULE: CC(C)(C)C1CCc2c(sc(NC(=O)c3ccccc3F)c2C(=O)N2CCCCC2)C1 (stereo unspecified)
activity change, negative = inhibition, %: -1.57

MOLECULE: Cc1noc2ncnc(NCc3ccccc3Cl)c12
activity change, negative = inhibition, %: -26.2

MOLECULE: CCOC(=O)c1cccc(NS(=O)(=O)c2cn(C)c(C)n2)c1
activity change, negative = inhibition, %: 2.44

MOLECULE: Cc1ccc(CN2CCNC(=O)C2CC(=O)NCc2csc(C(C)C)n2)cc1 (stereo unspecified)
activity change, negative = inhibition, %: 6.06

MOLECULE: Cc1ccc(NC(=O)Cn2nnc3sc4c(c3c2=O)CCC(C)C4)cc1 (stereo unspecified)
activity change, negative = inhibition, %: -19.7

MOLECULE: CCOC(=O)C1(C(F)(F)F)N=C(N(C)C)OC(N(C)C)=N1
activity change, negative = inhibition, %: 9.94
